B1: PRIM1 (parent)
chain: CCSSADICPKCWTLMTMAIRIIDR

Variants of: B1
Assay: protein stability index of a GFP-peptide fusion (GPS, HEK-293T) (PSI 1-6); higher = more stable;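 also: lentivirally expressed fusions sorted by FACS into six bins by GFP to DsRed ratio, PSI derived from sequencing read proportions per bin multiplied by bin number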
Conditions: c terminus: a fixed tail appended
assay-metric: protein stability index

[[record]]
variant_name = "C1H"
assay_metric = "protein stability index"
quantitative_result = 1.87

[[record]]
variant_name = "S3I"
assay_metric = "protein stability index"
quantitative_result = 1.87

[[record]]
variant_name = "L14G"
assay_metric = "protein stability index"
quantitative_result = 1.27

[[record]]
variant_name = "A18F"
assay_metric = "protein stability index"
quantitative_result = 1.64

[[record]]
variant_name = "C1R"
assay_metric = "protein stability index"
quantitative_result = 2.01

[[record]]
variant_name = "I7G"
assay_metric = "protein stability index"
quantitative_result = 1.98

[[record]]
variant_name = "A5R"
assay_metric = "protein stability index"
quantitative_result = 1.67

[[record]]
variant_name = "M17D"
assay_metric = "protein stability index"
quantitative_result = 2.33

[[record]]
variant_name = "I22T"
assay_metric = "protein stability index"
quantitative_result = 2.97

[[record]]
variant_name = "M15L"
assay_metric = "protein stability index"
quantitative_result = 1.59

[[record]]
variant_name = "A5V"
assay_metric = "protein stability index"
quantitative_result = 1.64


The reported numbers originate from the supplement of paper PMC10567573.
